Test system: MDR1 (P-gp)
method: Efflux ratio of permeability from basolateral to apical side to apical to basolateral side of dog MDCK cells expressing human MDR1
Format: ADME, cell-based, Canis lupus familiaris
Exam item: assign class 1 to entries whose efflux ratio is below 3 and class 0 to entries at or above 3. Note that a value of exactly 3 receives class 0.

Find out if reported efflux ratio for `CCc1cc(C[C@@H]2CS(=O)(=O)C[C@H](NCc3cccc(C(C)C)c3)[C@H]2O)ccc1O` is less than 3
class 0

Find out if reported efflux ratio for `CC(C)(C)c1cccc(CN[C@H]2CS(=O)(=O)C[C@@H](Cc3ccc(O)c(Br)c3)[C@@H]2O)c1` is less than 3
class 1

Find out if reported efflux ratio for `COc1ccc(C[C@@H]2CS(=O)(=O)C[C@H](NCc3cccc(C(C)C)c3)[C@H]2O)cc1Br` is less than 3
class 1

Find out if reported efflux ratio for CC(C)c1cccc(CN[C@H]2CS(=O)(=O)C[C@@H](Cc3ccc(O)cc3)[C@@H]2O)c1 (racemic) is less than 3
class 0

Find out if reported efflux ratio for CC(C)c1cccc(CN[C@H]2CS(=O)(=O)C[C@@H](Cc3cccc(Br)c3)[C@@H]2O)c1 (racemic) is less than 3
class 1

Find out if reported efflux ratio for `CC(C)c1cccc(CN[C@H]2CS(=O)(=O)C[C@@H](Cc3ccc(O)c(CCO)c3)[C@@H]2O)c1` is less than 3
class 0

Find out if reported efflux ratio for `CCCN1C(=O)OC[C@@H]1Cc1cc(C[C@@H]2CS(=O)(=O)C[C@H](NCc3cccc(C(C)C)c3)[C@H]2O)ccc1O` is less than 3
class 0

----------
Tested on: MDR1 (P-gp)
method: Permeability from basolateral to apical side in dog MDCK cells expressing human MDR-1 gene
Assay type: ADME, cell-based, Canis lupus familiaris
assay-context: read-out: permeability
Exam item: assign 1 to entries whose Papp B→A is below 30 ×10⁻⁶ cm/s and 0 to entries at or above 30 ×10⁻⁶ cm/s. Note that a value of exactly 30 ×10⁻⁶ cm/s receives 0.

Solved entries:
[
  {
    "molecule": "CC(C)c1cccc(CN[C@H]2CS(=O)(=O)C[C@@H](Cc3ccc(O)c(CCO)c3)[C@@H]2O)c1",
    "target-or-test-system": "MDR1 (P-gp)",
    "assigned-class": 1
  },
  {
    "molecule": "CCCOCc1cccc(C[C@@H]2CS(=O)(=O)C[C@H](NCc3cccc(C(C)C)c3)[C@H]2O)c1 (racemic)",
    "target-or-test-system": "MDR1 (P-gp)",
    "assigned-class": 1
  }
]

Find out if reported Papp B→A for CCCOc1cccc(C[C@@H]2CS(=O)(=O)C[C@H](NCc3cccc(C(C)C)c3)[C@H]2O)c1 (racemic) is less than 30 ×10⁻⁶ cm/s
1

----------
target-or-test-system: Cathepsin D (Homo sapiens, UniProt P07339)
Sequence (P07339 65-162 limits assumed): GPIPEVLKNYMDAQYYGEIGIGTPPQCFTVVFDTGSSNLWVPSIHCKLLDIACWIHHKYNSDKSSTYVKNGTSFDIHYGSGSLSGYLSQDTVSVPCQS
Sequence (P07339 169-412 limits assumed): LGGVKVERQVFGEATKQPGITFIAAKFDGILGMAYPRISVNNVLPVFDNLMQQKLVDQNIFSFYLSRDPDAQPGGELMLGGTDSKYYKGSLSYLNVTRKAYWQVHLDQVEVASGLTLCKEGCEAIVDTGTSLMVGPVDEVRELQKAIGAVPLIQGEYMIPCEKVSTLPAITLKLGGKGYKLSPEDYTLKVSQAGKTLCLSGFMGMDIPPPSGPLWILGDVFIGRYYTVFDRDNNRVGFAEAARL
method: Inhibition of human cathepsin D
Reported values of IC50 for individual entries
Please state the figure in nM; there is no need to write the unit.

// known answers, use as guide
[
  {
    "compound": "CNC(=O)Oc1ccc(C[C@@H]2CS(=O)(=O)C[C@H](NCc3cccc(C(C)C)c3)[C@H]2O)cc1Br",
    "value-unit": "nM",
    "reported": 370
  },
  {
    "compound": "CC(C)c1cccc(CN[C@H]2CS(=O)(=O)C[C@@H](Cc3ccc(O)c(Br)c3)[C@@H]2O)c1",
    "value-unit": "nM",
    "reported": 1200
  }
]

Recall the recorded IC50 for `CC(C)(C)c1cccc(CN[C@H]2CS(=O)(=O)C[C@@H](Cc3ccc(O)c(Br)c3)[C@@H]2O)c1` with Cathepsin D (Homo sapiens, UniProt P07339) and state it.
420

Recall the recorded IC50 for `CC(C)c1cccc(CN[C@H]2CS(=O)(=O)C[C@@H](Cc3ccc(O)c(CO)c3)[C@@H]2O)c1` with Cathepsin D (Homo sapiens, UniProt P07339) and state it.
2100

Recall the recorded IC50 for `CCCN1C(=O)OC[C@@H]1Cc1cc(C[C@@H]2CS(=O)(=O)C[C@H](NCc3cccc(C(C)C)c3)[C@H]2O)ccc1O` with Cathepsin D (Homo sapiens, UniProt P07339) and state it.
6400

Recall the recorded IC50 for CC(C)c1cccc(CN[C@H]2CS(=O)(=O)C[C@@H](Cc3ccc(O)cc3)[C@@H]2O)c1 (racemic) with Cathepsin D (Homo sapiens, UniProt P07339) and state it.
5400

Recall the recorded IC50 for `CCCCc1cc(C[C@@H]2CS(=O)(=O)C[C@H](NCc3cccc(C(C)C)c3)[C@H]2O)ccc1O` with Cathepsin D (Homo sapiens, UniProt P07339) and state it.
1900

Recall the recorded IC50 for `CCc1cc(C[C@@H]2CS(=O)(=O)C[C@H](NCc3cccc(C(C)C)c3)[C@H]2O)ccc1O` with Cathepsin D (Homo sapiens, UniProt P07339) and state it.
2400

Recall the recorded IC50 for CC(C)c1cccc(CN[C@H]2CS(=O)(=O)C[C@@H](Cc3cccc(Br)c3)[C@@H]2O)c1 (racemic) with Cathepsin D (Homo sapiens, UniProt P07339) and state it.
2300

Entry source: ChEMBL document CHEMBL1759891
